biological target: ZDHHC17 (Homo sapiens); construct: purified ZDHHC17 (50 ng) with recombinant MAP2K4; with MAP2K4; experiment: ex vivo kinase assay of ZDHHC17-activated MAP2K4 with JNK2 substrate (western blot); supported by co-IP disruption in U118MG cells and ZDHHC17 mutants; no direct binding measurement
Sequence (Q8IUH5 whole entry): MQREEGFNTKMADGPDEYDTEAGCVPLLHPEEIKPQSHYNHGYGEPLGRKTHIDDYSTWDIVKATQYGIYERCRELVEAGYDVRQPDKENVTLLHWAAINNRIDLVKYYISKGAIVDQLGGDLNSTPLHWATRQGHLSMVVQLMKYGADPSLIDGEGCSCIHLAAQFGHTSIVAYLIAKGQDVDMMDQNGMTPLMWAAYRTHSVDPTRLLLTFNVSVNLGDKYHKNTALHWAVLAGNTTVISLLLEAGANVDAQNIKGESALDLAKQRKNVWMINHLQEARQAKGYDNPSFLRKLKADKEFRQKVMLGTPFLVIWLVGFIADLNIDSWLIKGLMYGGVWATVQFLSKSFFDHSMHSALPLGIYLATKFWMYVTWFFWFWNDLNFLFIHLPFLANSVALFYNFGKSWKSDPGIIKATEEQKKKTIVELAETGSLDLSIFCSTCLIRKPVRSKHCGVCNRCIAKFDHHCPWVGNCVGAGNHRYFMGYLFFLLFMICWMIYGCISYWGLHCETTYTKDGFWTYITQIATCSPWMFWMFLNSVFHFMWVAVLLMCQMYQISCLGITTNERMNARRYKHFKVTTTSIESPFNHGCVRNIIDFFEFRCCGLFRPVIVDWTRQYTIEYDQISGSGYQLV
Sequence (P45985 2-399 partner): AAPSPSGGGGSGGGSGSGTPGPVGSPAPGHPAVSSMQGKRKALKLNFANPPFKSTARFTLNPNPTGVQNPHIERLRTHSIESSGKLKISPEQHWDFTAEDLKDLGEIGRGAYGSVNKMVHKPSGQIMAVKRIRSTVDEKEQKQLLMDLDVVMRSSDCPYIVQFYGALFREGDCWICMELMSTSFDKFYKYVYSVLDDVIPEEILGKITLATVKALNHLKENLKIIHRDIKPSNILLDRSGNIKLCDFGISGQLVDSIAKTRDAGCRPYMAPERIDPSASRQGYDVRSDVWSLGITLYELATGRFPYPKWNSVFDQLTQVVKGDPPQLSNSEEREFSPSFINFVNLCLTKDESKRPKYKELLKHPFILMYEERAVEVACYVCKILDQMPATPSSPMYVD
OBSERVED_PROPERTY: pIC50
Bear in mind: pIC50 is minus log10 of a mol/L concentration; give just that figure.

Lab book: pIC50 of O=c1c(-c2ccc(O)cc2)coc2cc(O)cc(O)c12 [genistein] noted as 6.10
